# condition info: 10 min, 5 µM
Listed here are compounds together with their documented Human Plasma Prodrug (%).
API: value field is a number in %; no unit string.

Worked cases, answers included:
compound: CCCCC(CC)C(=O)OC1=C[C@@H]2N(C)CC[C@]2(c2ccc(OC)c(OC)c2)CC1 (stereo partly shown)
unit of measurement: %
observed measurement: 95.9

compound: CCCC(C)C(=O)OC1=C[C@@H]2N(C)CC[C@]2(c2ccc(OC)c(OC)c2)CC1 (stereo partly shown)
unit of measurement: %
observed measurement: 11.3

compound: COc1ccc([C@@]23CCC(OC(=O)CCN)=C[C@@H]2N(C)CC3)cc1OC
unit of measurement: %
observed measurement: 2.2

Now turn to the next compound.
Item: `CCC(CC)C(=O)OC1=C[C@@H]2N(C)CC[C@]2(c2ccc(OC)c(OC)c2)CC1` | Human Plasma Prodrug (%): 87.1

* * *

We begin with a simple list: items and their reported Condition 1 Conversion (%).
# method summary: Hydrolysis Assay of Example A2, Condition 1 (SGF with pepsin, pH 1.5, 37° C.)
# Assay type: physicochemical
# condition info: SGF with pepsin pH 1.5, 37° C., 0.5 mM; time 30 min
Report as a plain number; the unit % is understood.

Examples from the recorded data:
compound: COc1ccc([C@]23CCN(C)[C@H]2CC2(CC3)OCC(C34CC5CC(CC(C5)C3)C4)O2)cc1OC (stereo partly drawn) [Compound 281]
observed measurement: 0
//
compound: COc1ccc([C@]23CCN(C)[C@H]2CC2(CC3)OCC(C)O2)cc1OC (stereo partly drawn) [Compound 211]
observed measurement: 0
//
compound: COc1ccc([C@]23CCN(C)[C@H]2CC2(CC3)OC[C@@H](c3ccccc3)O2)cc1OC (stereo partly drawn) [Compound 081]
observed measurement: 0
//
compound: COc1ccc([C@@]23CC/C(=N\OC(C)(C)OC)C[C@@H]2N(C)CC3)cc1OC [Compound 204]
observed measurement: 0

Okay, next one:
get_value(item= COc1ccc([C@]23CCN(C)[C@H]2CC2(CC3)OCC(COCc3ccccc3)O2)cc1OC (stereo partly drawn) [Compound 215] , readout=Condition 1 Conversion (%)) returns 6.1

* * *

The entries below come with measured Rat Plasma Prodrug (%) values attached.
# condition info: 240 min, 5 µM
Numeric answer only, unit % assumed.

Lab note: CCCC(CC)CC(=O)OC1=C[C@@H]2N(C)CC[C@]2(c2ccc(OC)c(OC)c2)CC1 (stereo partly shown) gave Rat Plasma Prodrug (%) of 0.0

For this compound ( CCCCCC(C)C(=O)OC1=C[C@@H]2N(C)CC[C@]2(c2ccc(OC)c(OC)c2)CC1 (stereo partly shown) ), measured Rat Plasma Prodrug (%) is 0.0

Entry `COc1ccc([C@@]23CCC(OC(=O)c4ccc(C(C)C)cc4)=C[C@@H]2N(C)CC3)cc1OC` ; Rat Plasma Prodrug (%) = 0.0

`CCCC(CCC)C(=O)OC1=C[C@@H]2N(C)CC[C@]2(c2ccc(OC)c(OC)c2)CC1` yielded Rat Plasma Prodrug (%) of 2.3

Notebook: `CCC(C)(CC)C(=O)OC1=C[C@@H]2N(C)CC[C@]2(c2ccc(OC)c(OC)c2)CC1` , Rat Plasma Prodrug (%) read as 92.8

The compound listed as `COCCOCCC(=O)OC1=C[C@@H]2N(C)CC[C@]2(c2ccc(OC)c(OC)c2)CC1` has a reported Rat Plasma Prodrug (%) of 0.0

For reference, reported Rat Plasma Prodrug (%) for `COc1ccc([C@@]23CCC(OC(=O)c4c(C)cc(C)cc4C)=C[C@@H]2N(C)CC3)cc1OC` stands at 95.8
